Test: NOMO-1 AML cell viability reduction, primary screen, STK33 inhibitor project, CellTiter-Glo luminescence (AID 2330)
Conditions: NOMO-1 AML viability, 72 h, active compounds read high, concentration not given here
Hit rate of the full screen: of about 37,000 compounds, about 2,800 (7.6%) were called active. Roughly 1% stayed inconclusive and do not appear here. Only a selection was taken, and actives are over-represented in it overall.
A collection of compounds and their measured inhibition
READOUT LABEL: inhibition

1. NC(CC(=O)Nc1ccc(Cl)cc1)C(=O)O (configuration not stated); 16.1% (inactive)
2. COc1ccc(CNC(=O)c2c(C)oc3c2cc(OC(C)=O)c2ccccc23)cc1; 43% (inactive)
3. O=C(CSc1nnc(-c2ccncc2)n1-c1ccccc1)Nc1ccc(Cl)c(Cl)c1; 33.8% (inactive)
4. Oc1c(Cl)cc(Cl)c(Cl)c1Cc1c(O)c(Cl)cc(Cl)c1Cl; 107% (active)
5. C[C@@H]1CN([C@@H](C)CO)C(=O)Cc2cc(NC(=O)Nc3ccccc3)ccc2O[C@@H]1CN(C)S(=O)(=O)c1ccc(F)cc1; 14.1% (inactive)
6. C[C@H]1CN([C@@H](C)CO)C(=O)Cc2cc(NC(=O)Nc3ccc(F)cc3)ccc2O[C@H]1CN(C)S(=O)(=O)c1ccccc1; 108% (active)
7. C[C@H]1CN([C@@H](C)CO)C(=O)c2cccc(NS(C)(=O)=O)c2O[C@@H]1CN(C)C(=O)Nc1ccc(F)cc1; -0.485% (inactive)
8. C[C@@H]1CN([C@H](C)CO)C(=O)Cc2cc(NC(=O)C3CCCCC3)ccc2O[C@H]1CN(C)S(=O)(=O)c1ccc(Cl)cc1; 28.6% (inactive)
9. COc1ccc(S(=O)(=O)N(C)C[C@@H]2Oc3ccc(NC(=O)C4CC4)cc3CC(=O)N([C@@H](C)CO)C[C@@H]2C)cc1; -0.988% (inactive)
10. O=C(CSc1nnc(-c2ccccc2)n1-c1ccc(Cl)cc1)Nc1ccc(Cl)cc1; 83.3% (active)
11. C[C@@H]1CN([C@H](C)CO)C(=O)Cc2cc(NC(=O)Nc3ccc(C(F)(F)F)cc3)ccc2O[C@@H]1CN(C)S(=O)(=O)c1ccccc1; 31.7% (inactive)
12. O=C(CSc1nc(O)cc(=O)n1-c1ccccc1F)Nc1ccc(Cl)cc1Cl; 9.63% (inactive)
13. COC(=O)CSc1nnc(-c2ccc(Cl)cc2)n1-c1ccc(Br)cc1; 95.1% (active)
14. COc1ccc(NC(=O)Nc2ccc3c(c2)CC(=O)N([C@H](C)CO)C[C@H](C)[C@H](CN(C)S(=O)(=O)c2ccc(OC)cc2)O3)cc1; 23.1% (inactive)
15. COc1ccc(C(C)=O)cc1CSc1nnc(-c2ccc(Br)cc2)n1-c1ccccc1; 15.8% (inactive)
16. C[C@H]1CN([C@@H](C)CO)C(=O)Cc2cc(NC(=O)C3CC3)ccc2O[C@H]1CN(C)S(=O)(=O)c1ccc(Cl)cc1; 125% (active)
17. Cc1cc(C(=O)Nc2cccc3c2O[C@@H](CN(C)Cc2ccc4c(c2)OCO4)[C@@H](C)CN([C@@H](C)CO)C3=O)n(C)n1; 9.25% (inactive)

###

Parameter: inhibition. Scope: all listed entries.
Assay: NOMO-1 AML cell viability reduction, primary screen, STK33 inhibitor project, CellTiter-Glo luminescence (AID 2330)
Settings: NOMO-1 AML viability, 72 h, active compounds read high, concentration not given here
Out of some 37,000 compounds screened, about 2,800 (7.6%) were called active. Another 1% or so got no clear call; they are omitted. Shown is part of a subset that was picked to be rich in actives.
READOUT LABEL: inhibition (%)

1) COc1cc(OC)c(NC(=O)CSc2nnc(-c3ccncc3)n2-c2ccccc2)cc1Cl; 37.4
2) C[C@H]1CN([C@@H](C)CO)C(=O)Cc2cc(NC(=O)NC3CCCCC3)ccc2O[C@H]1CN(C)S(=O)(=O)c1ccccc1; 0.581
3) C[C@H](CO)N1C[C@H](C)[C@H](CN(C)C(=O)Nc2ccc(C(F)(F)F)cc2)Oc2ccc(NS(C)(=O)=O)cc2CC1=O; -2.28
4) CCOC(=O)c1cnc2cc(C(F)(F)F)ccc2c1N1CCCCCC1; 13.2
5) O=C(Nc1ccc(OCc2ccccc2)cc1)OCC1CN(Cc2ccccc2)CCO1 (stereo not given); 113
